What koff was measured for each of the following?
# tgt: T1, human CI-M6PR domain1-3His6 (human, UniProt P11717 41-467)
# T1 construct: Recombinant, made in HEK293 cells; Biotinylated with NHS-PEG4-biotin for BLI; unlabelled in SEC-MALLS and crystallisation; also called CI-M6PR hDom1-3His6; hDom1-3His6
# assay_procedure: BLI, association pH 7.4, dissociation at pH 5.0, mean of local fits
One number for each entry, in s⁻¹.

State the recorded koff for every item in the following list.
1. humanized variant VHH8h1 (VHH, Made in E. coli, IMAC purified; tag not specified) VHH: EVQLVESGGGLVQPGGSLRLSCAASGRTFNTYNWGWFRQAPGKEREFVAAIRWSSSKTSYADSVKGRFTISRDNSKNTVYLQMNSLRPEDTAVYYCAASIVDFTTNPSHFGSWGQGTLVTVSS
2. humanized variant VHH8h3 (VHH, Made in E. coli, IMAC purified; tag not specified) VHH: DVQLVESGGGLVQAGGSLRLSCAASGRTFNTYNWGWFRQAPGKEREFVAAIRWSSSKTSYADSVKGRFTISRDNSKNTVYLQMNSLRPEDTAVYYCAASIVDFTTNPSHFGSWGQGTLVTVSS
3. anti-CI-M6PR VHH7 (VHH, Purified by IMAC, so tagged; Labelled with Alexa Fluor 488 (NHS ester) in the imaging experiments) VHH: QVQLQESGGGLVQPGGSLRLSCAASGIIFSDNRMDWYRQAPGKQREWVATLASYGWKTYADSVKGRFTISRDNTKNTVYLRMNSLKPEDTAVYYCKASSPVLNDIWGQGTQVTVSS
4. anti-CI-M6PR VHH8 (VHH, Purified by IMAC, so tagged; Labelled with Alexa Fluor 488 (NHS ester) in the imaging experiments) VHH: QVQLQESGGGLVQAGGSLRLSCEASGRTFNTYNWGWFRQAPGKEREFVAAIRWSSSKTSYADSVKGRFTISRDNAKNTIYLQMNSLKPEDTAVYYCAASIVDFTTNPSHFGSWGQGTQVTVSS
5. humanized variant VHH7h1 (VHH, Made in E. coli, IMAC purified; tag not specified) VHH: EVQLVESGGGLVQPGGSLRLSCAASGIIFSDNRMDWYRQAPGKQREWVATLASYGWKTYADSVKGRFTISRDNSKNTVYLQMNSLRPEDTAVYYCKASSPVLNDIWGQGTLVTVSS

Given back:
1. 0.029
2. 0.033
3. 0.017
4. 0.023
5. 0.02

Dear reader, for each entry below, please note its koff.
1. humanized variant VHH7h2 (VHH, Made in E. coli, IMAC purified; tag not specified) VHH: DVQLVESGGGLVQPGGSLRLSCAASGIIFSDNRMDWYRQAPGKQREWVATLASYGWKTYADSVKGRFTISRDNSKNTVYLQMNSLRPEDTAVYYCKASSPVLNDIWGQGTLVTVSS
2. humanized variant VHH7h3 (VHH, Made in E. coli, IMAC purified; tag not specified) VHH: DVQLVESGGGLVQPGGSLRLSCAASGIIFSDNRMDWYRQAPGKQREWVATLASYGWKTYADSVKGRFTISRDNTKNTVYLQMNSLRPEDTAVYYCKASSPVLNDIWGQGTLVTVSS

Given back:
1. 0.019
2. 0.019

Asked: Requested field: koff. Item: humanized variant VHH8h2 (VHH, Made in E. coli, IMAC purified; tag not specified) VHH: DVQLVESGGGLVQPGGSLRLSCAASGRTFNTYNWGWFRQAPGKEREFVAAIRWSSSKTSYADSVKGRFTISRDNSKNTVYLQMNSLRPEDTAVYYCAASIVDFTTNPSHFGSWGQGTLVTVSS
Given back: 0.041
